Measured inhibition accompanies every entry in the list below.
target-system: Glucose transporter (Leishmania mexicana) (UniProt O61059)
assay-protocol: ST_JUDE_LEISH: Cytotoxicity at 2uM final concentration against transgenic Leishmania Mexicana promastigotes LmGT2 that are glucose transport deficient and complemented with the L. Mexicana glucose transporter 2. Activity is measured by DNA content using SYBR green in vitro
Assay type: functional
Entry rule: numbers only, all in %.

Solved cases below.
COc1cc(C(F)(F)F)cc2[nH]c(CNCCCNc3nc4ccccc4[nH]3)cc12    5.01
Cc1c(Cl)ccc2sc(N3CCN(C(=O)c4ccc([N+](=O)[O-])o4)CC3)nc12    30
Cc1noc(C)c1-c1cccc(CNCc2ccc(-c3ccc(-c4nc5cc(F)ccc5[nH]4)s3)cc2)c1    10.2
CCCCCCNc1cc(C)nc2ccc(OC)cc12    4.54
O=C(C1CCN(C(c2ccccc2)c2ccc(Cl)c(Cl)c2)CC1)N1CC=CC1 (stereo not given)    -0.23
Cc1cccc2nc(-c3ccc(-c4ccc(CN5CCCC(N)C5)cc4)cc3)[nH]c12 (stereo not given)    2.6

Look at this compound and give its reported inhibition. Cc1noc(-c2ccc3c(c2)CCN(CCC2CCC(NC(=O)c4cc5ccccc5[nH]4)CC2)CC3)n1 (stereo not given)
1.98

Look at this compound and give its reported inhibition. CC1CCN(Cc2c(O)ccc3c(CN4CCC(C)CC4)c(O)ccc23)CC1
6.37

Look at this compound and give its reported inhibition. CC(C)C[C@H](NC(=O)c1cc2cc(OCCN3CCNCC3)ccc2o1)C(=O)NC1CC[C@@H](C)N(C(=O)Nc2ccc(Cl)cc2)CC1=O (stereo not given in full)
3.85

Look at this compound and give its reported inhibition. CCN(CC)CCNc1ccnc2ccc3ccccc3c12
2.97

Look at this compound and give its reported inhibition. Cc1cc(=NN=Cc2ccc(Cl)cc2)c2ccc(F)cc2[nH]1
1.54

Look at this compound and give its reported inhibition. Cc1nc(NC(=N)N)nc2ccc(C(C)(C)C)cc12
1.22

Look at this compound and give its reported inhibition. CC1(C)N=C(N)N=C(N)N1c1ccc(Oc2ccc(Cl)cc2)c(Cl)c1
2.05

Look at this compound and give its reported inhibition. N#Cc1cccc(NC(=O)C2=C(CCc3ccc4c(c3)OCO4)NC(=O)NC2c2cccc(C#N)c2)c1 (stereo not given)
-0.7

Look at this compound and give its reported inhibition. Cc1ccc(S(=O)(=O)N2CCCN(C(=O)c3cc(-c4ccccc4)[nH]n3)CC2)cc1
0.04

Look at this compound and give its reported inhibition. CCOc1cc(C)ccc1C1CCN(CCCCNC(=O)c2cccc(-c3ccc(C(F)(F)F)cc3)c2)CC1
2.69

Look at this compound and give its reported inhibition. COc1ccc(N2C(=O)c3c(c4ccccc4n3C)C2c2ccccc2O)cc1 (stereo not given)
5.53

Look at this compound and give its reported inhibition. Cc1ccc(N)cc1-c1nc(NC2CC(C)(C)NC(C)(C)C2)nc2c1ccc(=O)n2-c1c(F)cccc1F
2.03
